FYI, the data here is from patent US20250154240A1.

Target: T1, human CXCL1 protein (human, UniProt P09341 35-107)
T1 construct: also called HuCXCL1
T1 sequence: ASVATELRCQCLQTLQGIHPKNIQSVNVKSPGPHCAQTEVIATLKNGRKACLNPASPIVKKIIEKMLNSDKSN
Assay: antigen-immobilized ELISA, HuCXCL1 on the plate, absorbance (lower left panel)
Documented EC50 (read off the curve) across a set of binders

binder	EC50 (read off the curve)
Hu5A-5E11 VH1/VL1 (antibody, V domains shown, also called humanized Hu5A-5E11) VH: QVQLVQSGAEVKKPGSSVKVSCKASGYAFSDYWMNWVRQAPGQGLEWIGQIYPGSGDTNYNAKFKGKGTITADKSTSTAYMELSSLRSEDTAVYYCARERDYDVAMDYWGQGTTVTVSS VL: DIQMTQSPSSLSASVGDRVTITCKASQDINKYIAWFQQKPGKAPKLVIHYTSILQPGVPSRFSGSGSGTDYTFTISSLQPEDIATYYCLQYDNLPWTFGGGTKVEIK	~0.02 µg/mL
mh5A-5E11_VH7/VL (antibody, V domains shown) VH: QVQLQQSGAELVRPGSSVKISCKASGYAFSDYWMNWVKQRPGQGLEWIGQIYPGSGDTNYNAKFKGKGTLTADKSSSTAYMQLNSLTSEDSAVYFCARERDYDVAMDYWGQGTSVTVSS VL: DIQMTQSPSSLSASLGGKVTITCKASQDINKYIAWFQHKPGKGPRLVIHYTSILQPGIPSRFSGVGSGRDYSFSIRNLEPEDIATYYCLQYDNLPWTFGGGTKLEIK	~0.02 µg/mL
Hu5A-5E11 VH2/VL2 (antibody, V domains shown, Humanized antibody) VH: QVQLVQSGAEVKKPGSSVKVSCKASGYAFSDYWMNWVRQAPGQGLEWIGQIYPGSGDTNYNAKFKGKGTLTADKSTSTAYMELSSLRSEDTAVYYCARERDYDVAMDYWGQGTTVTVSS VL: DIQMTQSPSSLSASVGDRVTITCKASQDINKYIAWFQQKPGKAPKLVIHYTSILQPGVPSRFSGVGSGTDYTFTISSLQPEDIATYYCLQYDNLPWTFGGGTKVEIK	~0.02 µg/mL
Hu5A-5E11 VH2/VL1 (antibody, V domains shown, Humanized antibody) VH: QVQLVQSGAEVKKPGSSVKVSCKASGYAFSDYWMNWVRQAPGQGLEWIGQIYPGSGDTNYNAKFKGKGTLTADKSTSTAYMELSSLRSEDTAVYYCARERDYDVAMDYWGQGTTVTVSS VL: DIQMTQSPSSLSASVGDRVTITCKASQDINKYIAWFQQKPGKAPKLVIHYTSILQPGVPSRFSGSGSGTDYTFTISSLQPEDIATYYCLQYDNLPWTFGGGTKVEIK	~0.02 µg/mL
Hu5A-5E11 VH1/VL2 (antibody, V domains shown, Humanized antibody) VH: QVQLVQSGAEVKKPGSSVKVSCKASGYAFSDYWMNWVRQAPGQGLEWIGQIYPGSGDTNYNAKFKGKGTITADKSTSTAYMELSSLRSEDTAVYYCARERDYDVAMDYWGQGTTVTVSS VL: DIQMTQSPSSLSASVGDRVTITCKASQDINKYIAWFQQKPGKAPKLVIHYTSILQPGVPSRFSGVGSGTDYTFTISSLQPEDIATYYCLQYDNLPWTFGGGTKVEIK	~0.02 µg/mL
